Molecular target: recombinant human KRAS^G12D protein (Homo sapiens, UniProt P01116, G12D)
Sequence (P01116 1-188 isoform P01116-2 G12D): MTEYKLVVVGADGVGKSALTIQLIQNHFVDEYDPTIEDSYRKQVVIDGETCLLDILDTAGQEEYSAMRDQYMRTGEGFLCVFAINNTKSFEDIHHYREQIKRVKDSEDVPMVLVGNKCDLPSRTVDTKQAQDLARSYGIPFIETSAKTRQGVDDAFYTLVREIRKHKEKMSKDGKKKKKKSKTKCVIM
Test: Temperature-dependent Fluorescence (TdF) KRAS^G12D protein binding assay
Settings: 6 μM KRAS^G12D Protein, 10 μM compound, Sypro Orange; Kd calculated from fluorescent shift
readout_type: Kd

given_smiles | Kd
CCc1c(F)ccc2cc(O)cc(-c3nc(C)c4c(N5CC6CCC(C5)N6)nc(OC[C@@]56CCCN5C[C@H](F)C6)nc4c3F)c12 | ≤ 0.5 µM
CCc1cccc2cc(O)cc(-c3ncc4c(N5CC6CCC(C5)N6)nc(OC[C@@]56CCCN5C[C@H](F)C6)c(Cl)c4n3)c12 | ≤ 0.5 µM
Fc1ccccc1-c1nc2cc(OCC34CCCN3CCC4)nc(N3CC4CCC(C3)N4)c2cc1F | > 5 µM

Here is the next item to consider.
# lookup: Kd of CN1CCC[C@H]1Cn1c(=O)nc(N2CC3CCC(C2)N3)c2cc(F)c(-c3cc(O)cc4ccccc34)nc21
> 5 µM
